molecular target: ATX (Mus musculus (Mouse)); assay: Mice serum ATX inhibitory activity (IC50 determination)
recorded_endpoint: IC50 (nM)
API: value field is a number in nM; no unit string.

Would you please look over these solved cases?
# get_value(readout='IC50', item= CC(C)[C@@H](NC(=O)c1cc(C(F)(F)F)ccc1F)C(=O)N1CCC2(CC1)C(=O)NCC2c1ccccc1 (stereo partly shown) )
19.2

# get_value(readout='IC50', item= CC(C)[C@@H](NC(=O)c1cc(C(F)(F)F)ccc1F)C(=O)N1CCC2(CCN(C)CC2c2ccc(F)cc2)CC1 (stereo partly shown) )
5.1

# get_value(readout='IC50', item= COc1ccc(C2CN(C)CC23CCN(C(=O)[C@H](NC(=O)c2cc(C)ccc2F)C(C)C)CC3)cc1 (stereo partly shown) )
9.3

New cases:
# get_value(readout='IC50', item= COC(=O)N1CC(c2ccc(F)cc2)C2(CCN(C(=O)[C@H](NC(=O)c3cc(C(F)(F)F)ccc3F)C(C)C)CC2)C1 (stereo partly shown) )
59.7

----------
Molecular target: ATX (Mus musculus (Mouse), UniProt Q9R1E6)
Assay: Mice serum ATX inhibitory activity (IC50 determination)
Protocol: ATX Inhibitory activity was determined in a biochemical or whole blood assay as described previously (Bretschneider, T. et al., SLAS Discov 2017, 22, 425). […] The whole blood assay consisted of 45 μL μL heparinized mice/rat whole blood and the test compound (0.12-100 μM). […] Afterwards the samples were treated a described above and analysed by LC-MS/MS. The data was analyzed using graph pad prism (v 7.03) to arrive at the half-maximal inhibitory concentrations (IC50) of the test compounds.
pIC50: −log10 of the molar value.
Please note: class 1 applies when pIC50 is 8 or greater, and class 0 applies otherwise.

Does CC(C)[C@@H](NC(=O)c1cc(C(F)(F)F)ccc1F)C(=O)N1CCC2(CC1)C(=O)N(C(C)C)CC2c1ccc(F)cc1 (some centres unmarked) have a reported pIC50 of at least 8?
class 0

New cases:
Does CC(C)[C@@H](NC(=O)c1cc(F)ccc1F)C(=O)N1CCC2(CC1)CN(C)CC2c1ccc(F)cc1 (some centres unmarked) have a reported pIC50 of at least 8?
class 0

Does CN1CC(c2ccc(F)cc2)C2(CCN(C(=O)[C@H](NC(=O)c3cc(C(F)(F)F)ccc3F)C3CCCCC3)CC2)C1 (some centres unmarked) have a reported pIC50 of at least 8?
class 1

Does CC(C)[C@@H](NC(=O)c1cc(C(F)(F)F)ccc1F)C(=O)N1CCC2(CC1)C(=O)N(C)C(=O)C2c1ccccc1 (some centres unmarked) have a reported pIC50 of at least 8?
class 0

Does CC(C)[C@@H](NC(=O)c1cc(C(F)(F)F)ccc1F)C(=O)N1CCC2(CC1)C(=O)N(C)CC2c1ccc2[nH]ncc2c1 (some centres unmarked) have a reported pIC50 of at least 8?
class 0

Does CC(C)[C@@H](NC(=O)c1cc(OC(F)(F)F)ccc1F)C(=O)N1CCC2(CC1)C(=O)N(C)CC2c1ccccc1 (some centres unmarked) have a reported pIC50 of at least 8?
class 1

----------
Biological target: ATX (Mus musculus (Mouse))
Assay: Mice serum ATX inhibitory activity (IC50 determination)
Experimental: ATX Inhibitory activity was determined in a biochemical or whole blood assay as described previously (Bretschneider, T. et al., SLAS Discov 2017, 22, 425). […] The whole blood assay consisted of 45 μL μL heparinized mice/rat whole blood and the test compound (0.12-100 μM). […] Afterwards the samples were treated a described above and analysed by LC-MS/MS. The data was analyzed using graph pad prism (v 7.03) to arrive at the half-maximal inhibitory concentrations (IC50) of the test compounds.
recorded_endpoint: IC50 (nM)
API: value field is a number in nM; no unit string.

# get_value(readout='IC50', item= CC(C)[C@@H](NC(=O)c1cc(C(F)(F)F)ccc1F)C(=O)N1CCC2(CC1)C(=O)N(C)C=C2c1ccccc1 )
55.6

New cases:
# get_value(readout='IC50', item= CC(C)[C@@H](NC(=O)c1cc(Cl)ccc1Cl)C(=O)N1CCC2(CC1)CN(C)CC2c1ccc(F)cc1 (stereo partly drawn) )
130

# get_value(readout='IC50', item= CN1CC(c2ccc(F)cc2)C2(CCN(C(=O)[C@H](NC(=O)c3cc(C(F)(F)F)ccc3F)c3ccccc3)CC2)C1 (stereo partly drawn) )
11.5

# get_value(readout='IC50', item= CC(C)[C@@H](NC(=O)c1cc(C(F)(F)F)ccc1F)C(=O)N1CCC2(CC1)CC(=O)NCC2c1ccc(F)cc1 (stereo partly drawn) )
6.5

----------
biological target: ATX (Mus musculus (Mouse)); test: Mice serum ATX inhibitory activity (IC50 determination)
recorded_endpoint: pIC50
// pIC50: -log10(molar conc.)

Would you please look over these solved cases?
# get_value(readout='pIC50', item= CC(C)[C@@H](NC(=O)c1cc(C(F)(F)F)ccc1F)C(=O)N1CCC2(CC1)CN(C)CC2c1ccccc1 (some centres unmarked) )
8.18

# get_value(readout='pIC50', item= CC(C)[C@@H](NC(=O)c1cc(C(F)(F)F)ccc1F)C(=O)N1CCC2(CC1)C(=O)N(C)CC2c1ccc(F)cc1 (some centres unmarked) )
8.16

# get_value(readout='pIC50', item= CC(C)[C@@H](NC(=O)c1cc(C(F)(F)F)ccc1F)C(=O)N1CCC2(CC1)CN(C)CC2c1ccc2[nH]ncc2c1 (some centres unmarked) )
8.16

# get_value(readout='pIC50', item= CC(C)[C@@H](NC(=O)c1cc(C(F)(F)F)ccc1F)C(=O)N1CCC2(CC1)OC(=O)NC2c1ccccc1 (some centres unmarked) )
7.13

# get_value(readout='pIC50', item= CC(C)[C@@H](NC(=O)c1cc(C(F)(F)F)ccc1F)C(=O)N1CCC2(CC1)CN(C(C)C)CC2c1ccc(F)cc1 (some centres unmarked) )
7.35

New cases:
# get_value(readout='pIC50', item= CC(C)[C@@H](NC(=O)c1cc(C(F)(F)F)ccc1F)C(=O)N1CCC2(CC1)CC(=O)NCC2c1ccccc1 (some centres unmarked) )
8.46

# get_value(readout='pIC50', item= CC(C)[C@H](NC(=O)c1cc(C(F)(F)F)ccc1F)C(=O)N1CCC2(CC1)CC(=O)N(C)CC2c1ccccc1 (some centres unmarked) )
7.92

# get_value(readout='pIC50', item= Cc1ccc(C2CN(C)CC23CCN(C(=O)[C@H](NC(=O)c2cc(C(F)(F)F)ccc2F)C(C)C)CC3)cc1 (some centres unmarked) )
8.66

# get_value(readout='pIC50', item= COc1ccc(C2CN(C)C(=O)C23CCN(C(=O)[C@H](NC(=O)c2cc(C(F)(F)F)ccc2F)C(C)C)CC3)cc1 (some centres unmarked) )
8.77

# get_value(readout='pIC50', item= Cc1ccnc(C(=O)N[C@@H](C(=O)N2CCC3(CC2)CN(C)CC3c2ccc(F)cc2)C(C)C)c1 (some centres unmarked) )
8.47

# get_value(readout='pIC50', item= CC(C)[C@@H](NC(=O)c1cc(C(F)(F)F)ccc1F)C(=O)N1CCC2(CC1)C(=O)NCC2c1cccnc1 (some centres unmarked) )
7.25

----------
target: ATX (Mus musculus (Mouse)); test: Mice serum ATX inhibitory activity (IC50 determination)
Recorded IC50 values for a group of compounds are listed next.
API: value field is a number in nM; no unit string.

Would you please look over these solved cases?
# get_value(readout='IC50', item= CC(C)[C@@H](NC(=O)c1cc(C(F)(F)F)ccc1F)C(=O)N1CCC2(CC1)CN(C)CC2c1ccc(C(=O)O)cc1 (some centres unmarked) )
1.1

# get_value(readout='IC50', item= CC(C)[C@@H](NC(=O)c1cc(C(F)(F)F)ccc1F)C(=O)N1CCC2(CC1)C(=O)N(CC1CC1)CC2c1cccnc1 (some centres unmarked) )
102

New cases:
# get_value(readout='IC50', item= CC(C)[C@@H](NC(=O)c1cc(C(F)(F)F)ccc1F)C(=O)N1CCC2(CC1)CN(CC1CC1)CC2c1ccc(F)cc1 (some centres unmarked) )
84.4

----------
molecular target: ATX (Mus musculus (Mouse), UniProt Q9R1E6); experiment: Mice serum ATX inhibitory activity (IC50 determination); format: biochemical
Recorded IC50 values for a group of molecules are listed next.
API: value field is a number in nM; no unit string.

Would you please look over these solved cases?
# get_value(readout='IC50', item= CC(C)[C@@H](NC(=O)c1ccccc1F)C(=O)N1CCC2(CC1)C(=O)N(C)CC2c1ccccc1 (some centres unmarked) )
66.8

# get_value(readout='IC50', item= COc1ccc(F)c(C(=O)N[C@@H](C(=O)N2CCC3(CC2)C(=O)N(C)CC3c2ccccc2)C(C)C)c1 (some centres unmarked) )
25.6

# get_value(readout='IC50', item= CC(C)[C@@H](NC(=O)c1nn(C)c2ccccc12)C(=O)N1CCC2(CC1)CN(C)CC2c1ccc(F)cc1 (some centres unmarked) )
48.4

# get_value(readout='IC50', item= CC(C)[C@@H](NC(=O)c1cc(C(F)(F)F)ccc1F)C(=O)N1CCC2(CC1)CN(C)CC2c1cccnc1 (some centres unmarked) )
13.4

# get_value(readout='IC50', item= CC(C)[C@@H](NC(=O)c1cc(C(F)(F)F)ccc1F)C(=O)N1CCC2(CC1)CC(=O)N(C)CC2c1ccccc1 (some centres unmarked) )
11.2

# get_value(readout='IC50', item= CC(C)[C@@H](NC(=O)c1cc(C(F)(F)F)ccc1F)C(=O)N1CCC2(CC1)CC(=O)N(C)CC2c1ccc(F)cc1 (some centres unmarked) )
7.5

# context switch: different molecule, same IC50
# get_value(readout='IC50', item= CC(C)[C@@H](NC(=O)c1cc(C(F)(F)F)ccc1F)C(=O)N1CCC2(CC1)C(=O)N(C)CC2c1cccnc1 (some centres unmarked) )
13.3
